pKi: −log10 of the molar value.
Here we gather pKi data for Tyrosine-protein kinase JAK3 (Homo sapiens) reported by several publications.
measured quantity: pKi

1. CN(C)c1ccc(-c2cnc3[nH]cc(-c4nncn4-c4cccc(F)c4F)c3c2)cc1N	6.00 to 6.70
2. N#CCCN(Cc1ccccc1)C(=O)c1c(N)nn2cc(-c3ccncn3)cnc12	< 5.30
3. NC1NN2C=C(c3cccc(CN4CC[C@@H](N)C4)c3)C=NC2=C1c1ccccn1 (some centres unmarked)	< 5.30
4. C[C@H](Nc1cc(-c2c(N)nn3cccnc23)ncn1)c1ccc(F)cc1Cl	7.00 to 8.00
5. CCCn1cc(-c2ncnc3[nH]cc(Cl)c23)cn1	6.30 to 7.00
6. O=C1COc2ccc(-c3ccnc(Nc4cccc(O)c4)n3)cc2N1CCN1CCOCC1	> 5.30
7. O=C1NC(c2ccc(Br)cc2)c2c[nH]c3nccc(c23)-c2ccccc21 (centres unmarked)	< 5.60
8. C=COCCCCOc1nc(N[C@@H](C)c2ccc(F)cc2)cc(-c2c(N)nn3cccnc23)n1	6.30 to 7.00
